Tested on: K4 kissing-loop RNA reporter;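 further: bound reporter read as fluorescence of individual clusters on recovered sequencing chips by microscopy, with normalized cluster intensities fitted with a binding model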
test name: apparent KD of K4 kissing-loop reporter; higher = weaker reporter binding
condition summary: Eterna round: R107; input ligand: tryptophan 2.4 mM
measured quantity: apparent KD of K4 kissing-loop reporter

AUAAACUUGCAGUGAUGUUGCAAGUAAGACUAGGAUAUCAGGAAACUGAGAAGGAGUCAUCUCCUUCAACUGCAAGAAUGAAGGA [[K1]-[K2]-[F1]-[F2]-[F]'-[K]'-[F]''_Design4] = 133 nM
UGUCAUUGGUCGGCCGCCACUCCAUAAAGAGUGAUGUUCUAAAAGACGGAUCGAAAGAUCUGUCGGAGGACCGGGACCGAUGACU [FiskerMod 4 - Jieux - Same State - Tryptophan B] = 243 nM
ACGGAUACGCGAGAUACCAGAGGCAUUCGCCAGCGACCAUAAUGUCCCGAGAGUGAUGUUCUCCCUUGGCAGCUCAUGGUUAAUU [theeternabot_exclusion_KL_Theo_B_2] = 385 nM
AAUCUCGUCCUGGAUACCAGUCGCACGGUUUGUCAUGUCAGCCAGUGAUGUUGCCUGCAUGACCCUUGGCAGCCAUUCUAUGAAU [theeternabot_exclusion_KL_Theo_B_45] = 246 nM
AAGGCGUCGAGUUUGGUGGCGCCAACAGAUACCAGAUUACCUCCAAUCCCUUGGCAGCUGGCUUGAGAGUGAUGUUUUCAAAAGU [theeternabot_sameState_KL_Theo_A_33] = 349 nM
UGGAGUUGACGAAAAGUCAACUCCAGAGAAGGAGCGGACGAAAGUCCAGGUAGGUCGCUCACUACCAGUGAUGUUGGUACUUAAA = 139 nM
AGGAUCCGUCGACAAAAGUCGACAAUAACCAAGGAUAUGACGAAAGUCAGAAGGUGGUCUUAUGACCAGUGAUGUUGGUGGAUCC [FmnA 15 #SwitchBubble #K4Late] = 243 nM
GUUACGCAUGGAAGGAGCGCACUCCGAUUGGACGACACAGUGAUGUUGUGGUUCGUUCGAAUGCAGGUAGGUCGCCAUGUGUAAC [Ex Arginine B K4 19] = 148 nM
UGAUUGCCAGUGAUGUUGGCAUAAACUGAAGGAGCGCGUGAAAACGCAGGUAGGUCGCAGUACCAUGCCAAUUGAUCGAAAGAUC [KL-XArg-A2] = 141 nM
AGGAGCGUGGGAUGUAAAUCGCACGCUCCUCGAGGACCGGUACGGCCGCCACUCGCUCGCGCCGAGUGAUGUUCGGCCGGCGAAC [#2 Same State - Tryptophan A Attempt #13 (HarryS)] = 446 nM
UUUAACGAGUGAUGUUCGAAGAGUAAUGGUGAGGAUAUCGAUUUUUCGAGAAGGCACCUCGAAGUGAUACGAAAGUAUCGCUUCG [FMN A 5] = 181 nM
UCGAUGGCCAGCGAUACCAGCCCAGUGAUGUUGGGCACAUGGUUGCGGGAAAUCCCAUUGGGCCCUUGGCAGCGCUUGCAUAGGU [Cezaat] = 171 nM
